System: Fam108b (ABHD17B) [Mus musculus], recombinant soluble
run-description: inhibition of soluble recombinant Fam108b, SAR follow-up, biochemical, gel-based ABPP, soluble form (AID 588589)
details: fluorophosphonate probe, at 5 µM, hits give high values
quantity-name: inhibition (%)
Note: unit % is implicit; provide only the numeric part.

Worked cases, inhibition given:
>>> print(df.to_string())
                            chemical_smiles  quantity_name  units  measured_number
0  Cc1nsc2nc(-c3cc(S(=O)(=O)N(C)C)ccc3Cl)oc(=O)c12     inhibition      %               10
1     Cc1nsc2nc(-c3cc4ccccc4nc3Cl)oc(=O)c12     inhibition      %               40
2  O=c1oc(-c2ccc(Br)cc2)nc2scc(-c3cccs3)c12     inhibition      %                0
3      Cc1nsc2nc(-c3sc4ccccc4c3Cl)oc(=O)c12     inhibition      %               20
4  Cc1nsc2nc(-c3cc(S(=O)(=O)N(C)Cc4ccccc4)ccc3Cl)oc(=O)c12     inhibition      %               30

Task: Give the reported inhibition for `O=C1CCC(=O)N1c1ccc(-c2nc3scc(-c4ccc(F)cc4)c3c(=O)o2)cc1` (system: Fam108b (ABHD17B) [Mus musculus], recombinant soluble).
Output: 0

Task: Lookup `O=c1oc(-c2ccccc2)nc2c1oc1ccc(Cl)cc12`
Output: 40

Task: Lookup `COc1cc2nc(-c3ccc(C(C)(C)C)cc3)oc(=O)c2cc1OC`
Output: 0

Task: Lookup `Cc1ccccc1-c1nc2scc(-c3ccc(Br)cc3)c2c(=O)o1`
Output: 0

Task: Lookup `Cc1nsc2nc(-c3cc(Br)cnc3Cl)oc(=O)c12`
Output: 10

Task: Lookup `COc1cc2nc(-c3ccccc3SC)oc(=O)c2cc1OC`
Output: 15

Task: Lookup `CCOc1ccc(-c2csc3nc(-c4ccccc4OC)oc(=O)c23)cc1`
Output: 35

Task: Lookup `Cc1nsc2nc(-c3ccc([N+](=O)[O-])cc3Cl)oc(=O)c12`
Output: 10

Task: Lookup `Cc1nsc2nc(-c3cc(Cl)ccc3Cl)oc(=O)c12`
Output: 15

Task: Lookup `O=c1oc(-c2ccccc2)nc2c1oc1ccccc12`
Output: 35

Task: Lookup `O=c1oc(-c2ccccc2Cl)nc2c1oc1ccccc12`
Output: 40

Task: Lookup `O=c1oc(Cc2ccccc2)nc2scc(-c3ccccc3)c12`
Output: 45

Task: Lookup `Cc1ccc(-c2csc3nc(-c4ccc(-c5ccccc5)cc4)oc(=O)c23)cc1`
Output: 0

Task: Lookup `CCOc1ccc(-c2csc3nc(-c4ccccc4C)oc(=O)c23)cc1`
Output: 5

Task: Lookup `O=C1OC(=O)c2cc(-c3nc4ccccc4c(=O)o3)ccc21`
Output: 0

Task: Lookup `Cc1ccc(-c2csc3nc(-c4ccc(C(C)(C)C)cc4)oc(=O)c23)cc1`
Output: 5

Task: Lookup `O=c1oc(-c2ccccc2)nc2c1cnn2-c1ccccc1`
Output: 70

Task: Lookup `COc1ccc(-c2csc3nc(Cc4ccccc4)oc(=O)c23)cc1OC`
Output: 5

----------
Test system: Fam108b (ABHD17B) [Mus musculus], recombinant soluble
run-description: inhibition of soluble recombinant Fam108b, SAR follow-up, biochemical, gel-based ABPP, soluble form (AID 588589)
details: fluorophosphonate probe, at 5 µM, hits give high values
The source made the active and inactive calls. No rule for the calls is given here.
Form field: inhibition (one value per entry).

Worked cases, inhibition given:
>>> print(df.to_string())
                            chemical_smiles         result
0  COc1ccc(-c2csc3nc(-c4ccc(C)cc4)oc(=O)c23)cc1  0% (inactive)
1     O=c1oc(-c2ccccc2F)nc2scc(-c3cccs3)c12            80%
2   O=c1oc(-c2ccc(F)cc2)nc2scc(-c3cccs3)c12  0% (inactive)

Task: Bench note: what inhibition did `O=c1oc(-c2ccc([N+](=O)[O-])cc2)nc2c1cnn2-c1ccccc1` show?
Output: 0% (inactive)

Task: Lookup `Cc1nsc2nc(-c3ccc(Cl)cc3Cl)oc(=O)c12`
Output: 20% (inactive)

----------
System: Fam108b (ABHD17B) [Mus musculus], recombinant soluble
run-description: inhibition of soluble recombinant Fam108b, SAR follow-up, biochemical, gel-based ABPP, soluble form (AID 588589)
details: fluorophosphonate probe, at 5 µM, hits give high values
quantity-name: inhibition (%)
Note: unit % is implicit; provide only the numeric part.

Worked cases, inhibition given:
>>> print(df.to_string())
                            chemical_smiles  measured_number
0           Cc1nsc2nc(-c3ccccc3Cl)oc(=O)c12                0
1        Cc1nsc2nc(-c3ccc(F)cc3Cl)oc(=O)c12               25
2  O=c1oc(-c2ccc(-c3ccccc3)cc2)nc2scc(-c3ccccc3)c12                0
3  O=C1CCC(=O)N1c1ccc(-c2nc3scc(-c4cccs4)c3c(=O)o2)cc1                0
4  CCOc1cccc(-c2nc3ccc(OC(C)=O)cc3c(=O)o2)c1                5

Task: Give the reported inhibition for `O=c1oc(-c2cccc(Cl)c2)nc2c1cnn2-c1ccccc1` (system: Fam108b (ABHD17B) [Mus musculus], recombinant soluble).
Output: 20

----------
Form field: inhibition (one value per entry).
Tested on: Fam108b (ABHD17B) [Mus musculus], recombinant soluble
run-description: inhibition of soluble recombinant Fam108b, SAR follow-up, biochemical, gel-based ABPP, soluble form (AID 588589)
details: fluorophosphonate probe, at 5 µM, hits give high values
Calls of active or inactive are those of the source. How the calls were made is not given here.

Worked cases, inhibition given:
In [3]: df
Out[3]:
                            chemical_smiles  quantity_name          result
0  COc1ccc(-c2csc3nc(-c4ccccc4C)oc(=O)c23)cc1     inhibition   0% (inactive)
1     Cc1nsc2nc(-c3cc(F)c(F)cc3Cl)oc(=O)c12     inhibition  15% (inactive)
2     CSc1ccc(Cl)c(-c2nc3snc(C)c3c(=O)o2)c1     inhibition  10% (inactive)
3             S=c1sc(-c2ccccc2Cl)nc2ccccc12     inhibition  35% (inactive)
4       CC(C)c1nsc2nc(-c3ccccc3Cl)oc(=O)c12     inhibition   0% (inactive)

Task: Bench note: what inhibition did `Cc1nsc2nc(-c3cc(S(=O)(=O)N4CCCC4)ccc3Cl)oc(=O)c12` show?
Output: 65%

Task: Lookup `O=c1oc(-c2ccccc2Cl)nc2c1cnn2-c1ccccc1`
Output: 80%

Task: Lookup `COc1ccc(/C=C/c2nc3scc(-c4cccs4)c3c(=O)o2)cc1`
Output: 0% (inactive)

Task: Lookup `O=c1oc(-c2ccccn2)nc2ccccc12`
Output: 45% (inactive)

Task: Lookup `O=c1oc(-c2cccc(F)c2)nc2c1cnn2-c1ccccc1`
Output: 70%

Task: Lookup `CCOc1cc2nc(-c3ccccc3SC)oc(=O)c2cc1OCC`
Output: 5% (inactive)

Task: Lookup `O=C(Nc1cccc(-c2nc3ccccc3c(=O)o2)c1)c1ccccc1`
Output: 50% (inactive)

Task: Lookup `Cc1nsc2nc(-c3cccnc3Cl)oc(=O)c12`
Output: 5% (inactive)

Task: Lookup `O=c1oc(-c2cccs2)nc2cc(Cl)ccc12`
Output: 40% (inactive)

Task: Lookup `Cc1ccccc1-c1nc2scc(-c3cccs3)c2c(=O)o1`
Output: 15% (inactive)

----------
Test system: Fam108b (ABHD17B) [Mus musculus], recombinant soluble
run-description: inhibition of soluble recombinant Fam108b, SAR follow-up, biochemical, gel-based ABPP, soluble form (AID 588589)
details: fluorophosphonate probe, at 5 µM
The source made the active and inactive calls. How the calls were made is not given here.
I would appreciate it if you answered using one of these outcomes: YES (active), NO (inactive)

For orientation, consider the following solved cases.
>>> print(df.to_string())
                        chemical_smiles  classification
0  CC(=O)Oc1ccc2nc(-c3ccccc3)oc(=O)c2c1              NO
1  CC(C)(C)c1nc2scc(-c3ccccc3)c2c(=O)o1             YES

Lab note: next molecule to report on.
Task: What was the test verdict on `O=c1oc(-c2cccs2)nc2scc(-c3ccccc3)c12` ?
Output: NO

----------
Test system: Fam108b (ABHD17B) [Mus musculus], recombinant soluble
run-description: inhibition of soluble recombinant Fam108b, SAR follow-up, biochemical, gel-based ABPP, soluble form (AID 588589)
details: fluorophosphonate probe, at 5 µM, hits give high values
Form field: inhibition (one value per entry).
Note: unit % is implicit; provide only the numeric part.

Worked cases, inhibition given:
In [3]: df
Out[3]:
                            chemical_smiles  quantity_name  measured_number
0  CCc1nc2sc(-c3ccccc3)c(-c3ccccc3)c2c(=O)o1     inhibition               55
1      O=c1oc(-c2cc3ccccc3o2)nc2ccc(Br)cc12     inhibition                0
2  CC(C)(C)c1ccc(-c2nc3scc(-c4ccccc4)c3c(=O)o2)cc1     inhibition                0
3  O=c1oc(-c2cccc(Cl)c2)nc2scc(-c3ccc(Br)cc3)c12     inhibition                0

Task: Give the reported inhibition for `Cc1sc2nc(-c3ccc(-c4ccccc4)cc3)oc(=O)c2c1C` (system: Fam108b (ABHD17B) [Mus musculus], recombinant soluble).
Output: 0

Task: Lookup `Cc1ccc2nc(-c3ccccc3Cl)oc(=O)c2c1`
Output: 15
